src = paper PMC9516332

- Tested on: 134 cancer cell lines
- Procedure Summary: Cell viability assay (ATPlite, 72 hours), IC50 on cancer cell line panel
- Condition Description: Homo sapiens, SNU-5, read-out: IC50 in cell proliferation assay
Items are presented alongside their recorded IC50.
Attribute Measured: IC50

[[record]]
smiles_notation = "Cn1cc(-c2cc3c(N4CCN(c5ncc([C@@](C)(N)c6ccc(F)cc6)cn5)CC4)ncnn3c2)cn1"
target_entity = "134 cancer cell lines"
reported_result = "9.36 µM"

[[record]]
smiles_notation = "CCc1cc2c(cc1N1CCC(N3CCOCC3)CC1)C(C)(C)c1[nH]c3cc(C#N)ccc3c1C2=O"
target_entity = "134 cancer cell lines"
reported_result = "> 10 µM"

[[record]]
smiles_notation = "C[C@@H](Oc1cc(-c2cnn(C3CCNCC3)c2)cnc1N)c1c(Cl)ccc(F)c1Cl"
target_entity = "134 cancer cell lines"
reported_result = "0.011 µM"

[[record]]
smiles_notation = "COc1cc(N2CCC(N3CCN(C)CC3)CC2)ccc1Nc1ncc(Cl)c(Nc2ccccc2P(C)(C)=O)n1"
target_entity = "134 cancer cell lines"
reported_result = "2.15 µM"

[[record]]
smiles_notation = "CC#CC(=O)N1CCC[C@H]1c1nc(-c2ccc(C(=O)Nc3ccccn3)cc2)c2c(N)nccn12"
target_entity = "134 cancer cell lines"
reported_result = "> 31.6 µM"

[[record]]
smiles_notation = "C=CC(=O)N1CCC([C@@H]2CCNc3c(C(N)=O)c(-c4ccc(Oc5ccccc5)cc4)nn32)CC1"
target_entity = "134 cancer cell lines"
reported_result = "8.94 µM"


====

- Target Entity: UniProt:Q9UPE1
- Sequence (Q9UPE1 whole entry): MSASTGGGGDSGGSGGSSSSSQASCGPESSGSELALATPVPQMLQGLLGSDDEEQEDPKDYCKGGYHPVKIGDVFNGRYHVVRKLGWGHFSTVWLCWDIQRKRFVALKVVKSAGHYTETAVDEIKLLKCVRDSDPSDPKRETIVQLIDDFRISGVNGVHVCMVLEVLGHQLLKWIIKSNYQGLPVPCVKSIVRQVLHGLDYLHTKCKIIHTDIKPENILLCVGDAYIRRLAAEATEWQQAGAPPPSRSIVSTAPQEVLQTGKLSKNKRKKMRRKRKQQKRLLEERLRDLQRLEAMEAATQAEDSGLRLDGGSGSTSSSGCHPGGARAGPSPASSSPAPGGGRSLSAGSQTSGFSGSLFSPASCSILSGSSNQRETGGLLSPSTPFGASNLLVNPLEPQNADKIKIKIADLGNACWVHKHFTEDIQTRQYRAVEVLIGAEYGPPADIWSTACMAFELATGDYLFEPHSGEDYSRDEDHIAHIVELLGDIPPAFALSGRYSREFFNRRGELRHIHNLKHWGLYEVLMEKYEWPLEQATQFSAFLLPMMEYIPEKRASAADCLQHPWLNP
- Procedure Summary: Kinase panel profiling at 1 µmol/L (MSA or IMAP), percentage inhibition
- Type: biochemical
- Condition Description: MSSK1; 1 µmol/L single concentration; read-out: %-inhibition, MSSK1
Known inhibition at 1 µM of a selection of compounds
Attribute Measured: inhibition at 1 µM (%)

[[record]]
smiles_notation = "CCN1CCN(c2ccc(Nc3cc(N(C)C(=O)Nc4c(Cl)c(OC)cc(OC)c4Cl)ncn3)cc2)CC1"
attribute_measured = "inhibition at 1 µM"
unit_string = "%"
reported_result = -2.83

[[record]]
smiles_notation = "Cn1cnc2c(F)c(Nc3ccc(Br)cc3Cl)c(C(=O)NOCCO)cc21"
attribute_measured = "inhibition at 1 µM"
unit_string = "%"
reported_result = -5.32

[[record]]
smiles_notation = "CCc1nc(C(N)=O)c(Nc2ccc(N3CCC(N4CCN(C)CC4)CC3)c(OC)c2)nc1NC1CCOCC1"
attribute_measured = "inhibition at 1 µM"
unit_string = "%"
reported_result = 22

[[record]]
smiles_notation = "C[C@H]1Oc2cc(cnc2N)-c2c(nn(C)c2C#N)CN(C)C(=O)c2ccc(F)cc21"
attribute_measured = "inhibition at 1 µM"
unit_string = "%"
reported_result = 33

[[record]]
smiles_notation = "Cn1cnc2c(F)c(Nc3ccc(Br)cc3F)c(C(=O)NOCCO)cc21"
attribute_measured = "inhibition at 1 µM"
unit_string = "%"
reported_result = -4.37

[[record]]
smiles_notation = "COC(=O)N[C@@H](C)CNc1nccc(-c2cn(C(C)C)nc2-c2cc(Cl)cc(NS(C)(=O)=O)c2F)n1"
attribute_measured = "inhibition at 1 µM"
unit_string = "%"
reported_result = 1.39

[[record]]
smiles_notation = "CCn1c(=O)c(-c2cc(NC(=O)Nc3ccccc3)c(F)cc2Br)cc2cnc(NC)cc21"
attribute_measured = "inhibition at 1 µM"
unit_string = "%"
reported_result = -0.94

[[record]]
smiles_notation = "COc1cc2ncnc(Nc3ccc(F)c(Cl)c3)c2cc1NC(=O)/C=C/CN1CCCCC1"
attribute_measured = "inhibition at 1 µM"
unit_string = "%"
reported_result = 0.445

